System: HCC-2998 colon
protocol.details: NCI-60 one-dose screen, 48 h (100 = growth as untreated, 0 = no growth, -100 = all killed)
assay.context: 10 µM unless noted
Compounds without any hit were thinned out: in the full panel of roughly 83,000, 20% have a hit.
readout.label: growth (%)
Quick note: give the figure in %, leave out the unit.

Example cases with answers are listed next.
molecule	growth, %
CS(=O)(=O)c1ccc(-c2[nH]c3ccc(F)cc3c2/C=N/NC(N)=S)cc1	24.3
COc1ccc(NC(=O)C(=O)c2c[nH]c3ccc(F)cc23)cc1	109
CCN(CC)c1ccc(Nc2ccc(CC(=O)c3ccccc3)cc2)cc1	94.9
COc1ccc(-c2nc3ncccn3c2/C=C/C(=O)c2cc(OC)c(OC)c(OC)c2)cc1	-58.4
CCn1nc(C#Cc2c(C)ccc3c(Nc4ccc(Cl)cc4)nccc23)c2c(N)ncnc21	31.6
COc1cccc(-c2cnco2)c1OCc1c(C)c(COc2c(OC)cccc2-c2cnco2)c(C)c(COc2c(OC)cccc2-c2cnco2)c1C	99.3
CC12CC(C#N)CCC1O2 (stereo not given)	114
Cc1nc2ccccc2c(/C=C/c2ccc(Cl)cc2)c1C(=O)/C=C/c1ccc(Cl)cc1	-74.7
CN(C)c1ccc2cc(-c3ccccc3F)c(N)nc2c1	54.3

// moving on: another record for growth
INPUT: Give a short answer stating reported growth for O=C1CSC(c2ccccc2)N1c1ccccc1 (stereo not given) .
OUTPUT: 115
